Test system: MCF-7 cells
Experiment: MTT cell viability assay, MCF-7
Type: cell-based
Settings: Homo sapiens, MCF7, 100 µM, 24 h, read-out: %Inhibition at 100 µM, MCF-7 cell line
The entries below come with measured inhibition at 100 µM values attached.
QUANTITY_MEASURED: inhibition at 100 µM (%)

{"COMPOUND": "N#CC1=C(N)Nc2n[nH]cc2C12C(=O)Nc1ccc(Br)cc12 (stereo not shown)", "MEASURED_VALUE": 7.24}
{"COMPOUND": "Cc1[nH]nc2nc(N)c3c(N)nc4ccc(Br)cc4c3c12", "MEASURED_VALUE": 28.2}
{"COMPOUND": "Cc1[nH]nc2nc(N)c3c(N)nc4ccccc4c3c12", "MEASURED_VALUE": 37.8}
{"COMPOUND": "Cc1[nH]nc2nc(N)c3c(N)nc4ccc(F)cc4c3c12", "MEASURED_VALUE": 47.8}
{"COMPOUND": "Nc1nc2ccc(Br)cc2c2c1c(N)nc1n[nH]cc12", "MEASURED_VALUE": 96.8}
{"COMPOUND": "Nc1nc2ccc(F)cc2c2c1c(N)nc1n[nH]cc12", "MEASURED_VALUE": 4.12}
{"COMPOUND": "Cc1[nH]nc2c1C1(C(=O)Nc3ccc(Cl)cc31)C(C#N)=C(N)N2 (stereo not shown)", "MEASURED_VALUE": 11.9}
{"COMPOUND": "Cc1[nH]nc2nc(N)c3c(N)nc4ccc([N+](=O)[O-])cc4c3c12", "MEASURED_VALUE": 10.3}
{"COMPOUND": "Cc1[nH]nc2c1C1(C(=O)Nc3ccccc31)C(C#N)=C(N)N2 (stereo not shown)", "MEASURED_VALUE": 2.38}
{"COMPOUND": "Cc1[nH]nc2c1C1(C(=O)Nc3ccc(Br)cc31)C(C#N)=C(N)N2 (stereo not shown)", "MEASURED_VALUE": 1.78}
